Each item that follows carries a reported MIC.
Test system: E. faecalis
Test: MIC by broth microdilution (aerobic pathogens), test strain 7
Format: cell-based
Settings: Enterococcus faecalis
# number only, unit mg/L dropped from output

C/C=C1\NC(=O)[C@H]([C@@H](C)O)NC(=O)c2csc(n2)-c2ccc(-c3nc(-c4nc(C(=O)NC5(C(=O)NN6CC(=O)N(CC(=O)OC)C6=O)CC5)cs4)cs3)nc2-c2csc(n2)[C@H]([C@@H](C)O)NC(=O)c2csc(n2)[C@H](C(C)C)NC(=O)c2csc1n2 [Compound 26]
1
C/C=C1\NC(=O)[C@H]([C@@H](C)O)NC(=O)c2csc(n2)-c2ccc(-c3nc(-c4nc(C(=O)NC5(C(=O)NCCN6CCN(C)CC6)CC5)cs4)cs3)nc2-c2csc(n2)[C@H]([C@@H](C)O)NC(=O)c2csc(n2)[C@H](C(C)C)NC(=O)c2csc1n2 [Compound 4]
0.25
CN[C@H](CC(C)C)C(=O)N[C@H]1C(=O)N[C@@H](CC(N)=O)C(=O)N[C@H]2C(=O)N[C@H]3C(=O)N[C@H](C(=O)N[C@H](C(=O)O)c4cc(O)cc(O)c4-c4cc3ccc4O)[C@H](O)c3ccc(c(Cl)c3)Oc3cc2cc(c3O[C@@H]2O[C@H](CO)[C@@H](O)[C@H](O)[C@H]2O[C@H]2C[C@](C)(N)[C@H](O)[C@H](C)O2)Oc2ccc(cc2Cl)[C@H]1O [Van, Vancomycin, reference compound]
1

# next compound below
Q: Return MIC measured with E. faecalis given this compound: C/C=C1\NC(=O)[C@H]([C@@H](C)O)NC(=O)c2csc(n2)-c2ccc(-c3nc(-c4nc(C(=O)NC5(C(=O)NCCCN6C(=O)NC(C)C6=O)CC5)cs4)cs3)nc2-c2csc(n2)[C@H]([C@@H](C)O)NC(=O)c2csc(n2)[C@H](C(C)C)NC(=O)c2csc1n2 (stereo partly shown) [Compound 37]
Ans: 0.5

---

System: C. difficile 159
Assay: MIC by agar dilution against Clostridioides difficile, test strain 15
Type: cell-based
Settings: test strain 15, C. difficile 159, anaerobic, agar dilution, read-out: MIC
endpoint.name: MIC (µg/mL)
# number only, unit µg/mL dropped from output

Q: Item C/C=C(\NC(=O)c1csc(-c2csc(-c3ccc4c(n3)-c3csc(n3)[C@H]([C@@H](C)O)NC(=O)c3csc(n3)[C@H](C(C)C)NC(=O)c3csc(n3)/C(=C/C)NC(=O)[C@H]([C@@H](C)O)NC(=O)c3csc-4n3)n2)n1)C(=O)NCCn1cc([N+](=O)[O-])nc1C [Compound 41] has what recorded MIC?
Ans: 0.5

---

Tested on: E. faecalis
Assay: MIC by broth microdilution (aerobic pathogens), test strain 7
Assay type: cell-based
Conditions: Enterococcus faecalis; test strain 7, E. faecalis; read-out: MIC
endpoint.name: MIC (µg/mL)
# number only, unit µg/mL dropped from output

C/C=C(\NC(=O)c1csc(-c2csc(-c3ccc4c(n3)-c3csc(n3)[C@H]([C@@H](C)O)NC(=O)c3csc(n3)[C@H](C(C)C)NC(=O)c3csc(n3)/C(=C/C)NC(=O)[C@H]([C@@H](C)O)NC(=O)c3csc-4n3)n2)n1)C(=O)NCCn1c([N+](=O)[O-])cnc1C
0.0625

Q: Item "C/C=C1\NC(=O)[C@H]([C@@H](C)O)NC(=O)c2csc(n2)-c2ccc(-c3nc(-c4nc(C(=O)NC5(C(=O)NCCN6CCN(S(C)(=O)=O)CC6)CC5)cs4)cs3)nc2-c2csc(n2)[C@H]([C@@H](C)O)NC(=O)c2csc(n2)[C@H](C(C)C)NC(=O)c2csc1n2" has what recorded MIC?
Ans: 1

Q: Further, for "C/C=C1\NC(=O)[C@H]([C@@H](C)O)NC(=O)c2csc(n2)-c2ccc(-c3nc(-c4nc(C(=O)NC5(C(=O)NCCCN6CCN(C7CC7)CC6)CC5)cs4)cs3)nc2-c2csc(n2)[C@H]([C@@H](C)O)NC(=O)c2csc(n2)[C@H](C(C)C)NC(=O)c2csc1n2" ?
Ans: 1

Q: Further, for "C/C=C1\NC(=O)[C@H]([C@@H](C)O)NC(=O)c2csc(n2)-c2ccc(-c3nc(-c4nc(C(=O)NC5(C(=O)NCCCN6C(=O)CNC6=O)CC5)cs4)cs3)nc2-c2csc(n2)[C@H]([C@@H](C)O)NC(=O)c2csc(n2)[C@H](C(C)C)NC(=O)c2csc1n2" ?
Ans: 0.25
